biological target: Protein arginine N-methyltransferase 1 (Homo sapiens); assay: human PRMT1 activity-probe blockers – biochemical, fluorescence polarization, primary screen (AID 652257); details: recombinant PRMT1, activity-based probe fluorescence polarization; at 2.79 µM
Hit rate of the full screen: of about 370,000 compounds, about 4,800 (1.3%) were called active.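 Rule for the calls: active = inhibition above about 21% made by adding two undisclosed values (limit read from the data); inactive = the rest.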 For the sample, actives were picked, then their nearest neighbours and some compounds at random.
In this exercise, the only acceptable responses are active, inactive

[
  {
    "Molecule": "O=S1(=O)c2ccc(Br)cc2OC[C@@H](Cc2ccccc2)N1Cc1cn(Cc2ccco2)nn1",
    "Qualitative label": "inactive"
  },
  {
    "Molecule": "Nc1nnc(SCC(=O)NCC(=O)Nc2ccc(F)c(F)c2F)s1",
    "Qualitative label": "inactive"
  },
  {
    "Molecule": "COC(=O)[C@]12C[C@H](CC(=O)NCCc3ccccc3OC)C(=O)N(Cc3ccco3)C1=C[C@H](C(C)C)O[C@@H]2C1CC1",
    "Qualitative label": "inactive"
  },
  {
    "Molecule": "Cc1cc(=O)[nH]c(SCC(=O)Nc2ccc(F)cc2F)n1",
    "Qualitative label": "inactive"
  }
]

Could you please tell me the result logged for `O=C(NCCOc1cccnc1)c1ccc(OC2CCN(Cc3ccccn3)CC2)cc1` in this assay?
inactive

Recorded test outcome, item `O=S1(=O)c2ccc(Br)cc2OC[C@H](Cc2ccccc2)N1Cc1cn(Cc2ccccc2)nn1`
inactive

====

biological target: Protein arginine N-methyltransferase 1 (Homo sapiens); experiment: human PRMT1 activity-probe blockers – biochemical, fluorescence polarization, primary screen (AID 652257); conditions: recombinant PRMT1, activity-based probe fluorescence polarization; at 2.79 µM
Hit rate of the full screen: of about 370,000 compounds, about 4,800 (1.3%) were called active.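 Rule for the calls: active = inhibition above about 21% made by adding two undisclosed values (limit read from the data); inactive = the rest.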 For the sample, actives were picked, then their nearest neighbours and some compounds at random.
Output constraint: value belongs to active, inactive

Solved entries (count: 3):
[
  {
    "Molecule": "COc1ccc(CN2C(=O)C(CC(=O)NCCCCc3ccccc3)CC(C(=O)N3CCOCC3)=C2C)cc1 (stereo not given)",
    "Tested system": "Protein arginine N-methyltransferase 1 (Homo sapiens)",
    "Qualitative label": "inactive"
  },
  {
    "Molecule": "O=C1CC[C@@]23CCCN2C(=O)CCC[C@H]3[C@H]1Cc1ccccc1",
    "Tested system": "Protein arginine N-methyltransferase 1 (Homo sapiens)",
    "Qualitative label": "inactive"
  },
  {
    "Molecule": "O=C(CSc1nc2ccccc2n1Cc1ccccc1Cl)N/N=C\\c1c[nH]c2ccccc12",
    "Tested system": "Protein arginine N-methyltransferase 1 (Homo sapiens)",
    "Qualitative label": "inactive"
  }
]

GET /call?item= Cc1cc2c(c(=O)n1Cc1ccco1)C(c1ccccc1)C(C#N)=C(N)O2 (stereo not given) returns the recorded outcome of this test.
active

Tell me the recorded outcome of this test for Cc1cc2c(c(=O)n1C)C(C(C)C)C(C#N)=C(N)O2 (stereo not given) .
inactive

====

I'd be grateful if you could share measured inhibition for these entries.
molecular target: Protein arginine N-methyltransferase 1 (Homo sapiens) (UniProt Q99873); assay: human PRMT1 activity-probe blockers – biochemical, fluorescence polarization, primary screen (AID 652257); conditions: recombinant PRMT1, activity-based probe fluorescence polarization; at 2.79 µM; hits give high values
Sequence (Q99873 whole entry, looked up): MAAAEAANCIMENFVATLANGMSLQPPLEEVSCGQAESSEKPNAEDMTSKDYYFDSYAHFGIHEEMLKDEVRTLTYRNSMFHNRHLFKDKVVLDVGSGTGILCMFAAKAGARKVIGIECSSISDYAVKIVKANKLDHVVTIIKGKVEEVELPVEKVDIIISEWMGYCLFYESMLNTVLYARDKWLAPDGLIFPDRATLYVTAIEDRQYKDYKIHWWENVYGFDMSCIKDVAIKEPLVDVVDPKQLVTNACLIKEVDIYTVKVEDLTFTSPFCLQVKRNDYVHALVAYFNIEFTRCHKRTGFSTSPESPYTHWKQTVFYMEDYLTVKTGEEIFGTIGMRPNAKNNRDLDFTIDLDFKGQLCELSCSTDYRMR
About 4,800 (1.3%) of roughly 370,000 compounds were called active. Shown is part of a subset that was picked to be rich in actives.
One number for each entry, in %.

# annotated cases, reported inhibition shown
[
  {
    "Compound": "COc1ccc(C)cc1NC(=O)CSc1nc(SC)ns1",
    "Recorded result": 16
  },
  {
    "Compound": "CCN(CC)C(=O)c1nc[nH]c1C(=O)N(C)Cc1ccccc1",
    "Recorded result": 0.76
  },
  {
    "Compound": "COc1cc(CN2CC(C)CC(C)C2)cc([N+](=O)[O-])c1O (stereo not given)",
    "Recorded result": -0.22
  },
  {
    "Compound": "O=C(O)c1cc(S(=O)(=O)N2CCCCCC2)c(Cl)cc1Cl",
    "Recorded result": -2.22
  },
  {
    "Compound": "COc1ccc(N2C(=O)CC(Nc3ccc(F)cc3)C2=O)c([N+](=O)[O-])c1 (stereo not given)",
    "Recorded result": 2
  }
]

Hi, could you look up inhibition for each item in my list?
1. CCOC(=O)C(C)n1nc(-c2ccccc2)c2ccccc2c1=O (stereo not given)
2. CC(CCN1CCC(C(O)(c2ccccc2)c2ccccc2)CC1)Oc1ccc(Cl)cc1 (stereo not given)
3. Cc1ccc(S(=O)(=O)N2CCN(C(=O)c3ccccc3-c3nc4ccccc4s3)CC2)c(C)c1
4. O=C(c1ccc[nH]c1=S)N1CCN(S(=O)(=O)c2ccc(Br)cc2Cl)CC1

1. -2.85
2. 0.54
3. 6.86
4. 31.8

Entry `COc1ccccc1/C=C/C=N/n1c(-c2ccc(Cl)cc2Cl)n[nH]c1=S` , tested on Protein arginine N-methyltransferase 1 (Homo sapiens) (UniProt Q99873), has a reported inhibition of 21.3
